// provenance: paper PMC10813298

- Tested on: L. (V.) braziliensis axenic amastigotes
- Protocol Summary: Antileishmanial activity on axenic amastigotes (MTT, 72 h)
- Format: cell-based, Leishmania (Viannia) braziliensis
- Description: In vitro amastigogenesis was performed by transformation from promastigotes at the stationary phase of growth to obtention axenic amastigotes. This process involved altering the culture conditions to Schneider’s medium with a pH of 5.5, supplementing them with 5% FBS, and incubating them at a temperature of 32 °C [17]. […]

{"columns": ["Line Notation", "EC50"],
 "data": [
  ["O=C(/N=C(/NCc1ccccc1)Nc1ccc([N+](=O)[O-])cc1)c1ccccc1", "4.3 µM"]
]}

###

Catalogue of viability at 72 h, 2.34 µmol/L readings, one per entry.
- Protocol Summary: Cell toxicity, MTT-based EZ4U assay, A549
- Set-up: species or system human
- Test Settings: human, A549 cells (alveolar basal epithelial adenocarcinoma); A549, 2.34 µmol/L, 72 h

{"columns": ["Molecule", "Quantity Unit", "viability at 72 h, 2.34 µmol/L"],
 "data": [
  ["O=C(/N=C(/NCc1ccc(Cl)cc1Cl)Nc1ccc(Br)cc1)c1ccccc1 [LQOF-G32]", "%", 109],
  ["O=C(/N=C(/NCc1ccccc1)Nc1ccc([N+](=O)[O-])cc1)c1ccccc1 [LQOF-G1]", "%", 114],
  ["O=C(/N=C(/NCc1ccccc1)Nc1ccc(Br)cc1)c1ccccc1 [LQOF-G2]", "%", 106]
]}
